Where do the numbers come from? From PubChem BioAssay (NCI).

PROTOCOL SUMMARY: NCI Yeast Anticancer Drug Screen. Data for the mlh1 rad18 strain (AID 175)
STUDY CONDITIONS: S. cerevisiae mlh1 rad18 strain growth inhibition; at 50.0 µM; hits give high values
This is part of a sample that, as a whole, favours compounds with a hit. Of some 79,000 tested, about 15% had one in any assay. *1 amine or outer side, *2 acyl side, *3 side chain or, on linkers, in order; H or OH if unused. Where a SMILES comes first, the peptide text is derived from it. Bridges are numbered along the chain shown (N, C = ends). [ ]: non-standard residue; d: D form. The star is where a group is joined. ξ: configuration not given here. Fmoc = O=C(OCC1c2ccccc2-c2ccccc21)*; X9 = O=C(C(CCCCNO[*:3])N[*:1])[*:2]; ξW = NC(Cc1c[nH]c2ccccc12)C(=O)O; ξP = O=C(O)C1CCCN1
A collection of compounds and their measured growth inhibition

- COMPOUND: "CCN(CC)c1ccccc1-c1ccccc1"
  growth inhibition (%): 20.1
- COMPOUND: "Nc1ncnc2nc(SC3OC(CO)C(O)C(O)C3O)[nH]c12 (stereo not drawn)"
  growth inhibition (%): 2.85
- COMPOUND: "OC(c1cccnc1)C(CCc1ccccn1)c1ccccn1 (stereo not drawn)"
  growth inhibition (%): 4
- COMPOUND: "CC(C)OC(=O)CCCCCc1ccccc1"
  growth inhibition (%): -8.4
- COMPOUND: "O=c1oc2c(-c3c(O)c(=O)oc4ccccc34)cc(O)cc2s1"
  growth inhibition (%): 36
- COMPOUND: "COc1ccc(C(C#N)NNc2nc(C)cc(=O)[nH]2)cc1OC (stereo not drawn)"
  growth inhibition (%): -47
- COMPOUND: "CC1CCCCC1NC(=O)c1ccccc1 (stereo not drawn)"
  growth inhibition (%): -3.1
- COMPOUND: "CCOC(=O)COc1ccc2c(C)cc(=O)oc2c1[N+](=O)[O-]"
  growth inhibition (%): 35.5
- COMPOUND: "CC[P+]1(c2ccccc2)[C@@H](C)CC[C@@H]1C"
  growth inhibition (%): 37.7
- COMPOUND: "c1csc(NC(Nc2nccs2)C23CC4CC(CC(C4)C2)C3)n1"
  growth inhibition (%): 7.45
- COMPOUND: "COC(=O)c1cc2ccc1OCC#CC#CCOc1ccc(cc1C(=O)OC)OCC#CC#CCO2"
  growth inhibition (%): 19.2
- COMPOUND: "NC(=O)CNC(=O)C1CCCN1C(=O)C1CCCCNOC(=O)CC[C@@H](NC(=O)OCC2c3ccccc3-c3ccccc32)C(=O)NC(Cc2c[nH]c3ccccc23)C(=O)N1 (stereo partly drawn) (Fmoc-[dE][ξW][X9][ξP]G-NH2; ester 1-3)"
  growth inhibition (%): -19.6
- COMPOUND: "CCCCCCCCCCCCCCCC(=O)N=C(C(N)=O)C(N)=O"
  growth inhibition (%): -19.9
- COMPOUND: "CCOC(=O)c1c(/N=C/c2cc(Br)cc(Br)c2O)sc2c1CCCC2"
  growth inhibition (%): -25.1
- COMPOUND: "CC(C=O)C1CCCCC1 (stereo not drawn)"
  growth inhibition (%): 5.6
- COMPOUND: "N#C/C(c1ccccc1)=[N+](/[O-])O"
  growth inhibition (%): 13.7
- COMPOUND: "O=C(O)c1ccc(C(=O)c2ccc(Cl)cc2)cc1"
  growth inhibition (%): 34.6
- COMPOUND: "N#CC1(c2ccccc2)C(c2ccccc2)CC(O)(c2ccccc2)C(C(=O)c2ccccc2)C1c1ccccc1 (stereo not drawn)"
  growth inhibition (%): -3.5
- COMPOUND: "CCCCC(=O)N1SC(NC(=O)OC)=Nc2ccccc21"
  growth inhibition (%): 76.2
- COMPOUND: "C#CC(C)(O)CCCCCCC (stereo not drawn)"
  growth inhibition (%): 5
- COMPOUND: "CC(C)Nc1nc(N)nc2nc(-c3ccc(Cl)cc3)c(-c3ccc(Cl)cc3)nc12"
  growth inhibition (%): 8
- COMPOUND: "COC(=O)C(CC12CC3CC(CC(C3)C1)C2)NC(=O)C(N)CC(=O)O (stereo not drawn)"
  growth inhibition (%): -24.4
- COMPOUND: "CCc1ccc(N=Nc2c(F)c(F)c(NC(C)=O)c(F)c2F)cc1"
  growth inhibition (%): -13.4
